Molecular target: GLUD1 Glutamate dehydrogenase 1, mitochondrial (Homo sapiens, UniProt P00367)
Construct: isoTOP-ABPP experiments performed in cell lysates (in vitro); endogenous in cells; host or cells: MDA-MB-231 soluble lysate
Sequence (P00367 54-558): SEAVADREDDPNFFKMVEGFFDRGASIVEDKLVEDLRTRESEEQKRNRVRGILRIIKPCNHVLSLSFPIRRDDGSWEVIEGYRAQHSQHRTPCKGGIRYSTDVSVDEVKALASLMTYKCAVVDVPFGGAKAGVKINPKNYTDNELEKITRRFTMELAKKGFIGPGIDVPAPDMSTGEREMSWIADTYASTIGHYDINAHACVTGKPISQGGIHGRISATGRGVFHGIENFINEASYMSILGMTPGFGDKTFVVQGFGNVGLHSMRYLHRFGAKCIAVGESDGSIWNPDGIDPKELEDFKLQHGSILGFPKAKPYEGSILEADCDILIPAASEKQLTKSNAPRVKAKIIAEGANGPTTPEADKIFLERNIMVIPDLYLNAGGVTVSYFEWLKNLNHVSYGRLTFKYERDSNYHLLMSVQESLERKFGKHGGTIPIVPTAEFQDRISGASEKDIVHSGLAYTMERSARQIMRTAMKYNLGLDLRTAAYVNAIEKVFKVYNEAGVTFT
Assay: competitive isoTOP-ABPP
Format: binding
Conditions: 50 uM, 231 sol, in vitro
REPORTED METRIC: isoTOP-ABPP reactivity ratio at lysine P00367_K480
# respond with the number and nothing more

Exam item: Could you tell me which isoTOP-ABPP reactivity ratio at lysine P00367_K480 is on file for O=C(Oc1ccc([N+](=O)[O-])cc1[N+](=O)[O-])C(c1ccccc1)c1ccccc1 [fragment 30, 2,4-Dinitrophenyl 2,2-diphenylacetate] ?
Marked response: 1.8

Exam item: So what's the measured isoTOP-ABPP reactivity ratio at lysine P00367_K480 for this one? O=C(CCc1cn(-c2ccccc2)nc1-c1ccccc1)Oc1ccc([N+](=O)[O-])cc1[N+](=O)[O-] [fragment 29]
Marked response: 1.9

Exam item: What value of measured isoTOP-ABPP reactivity ratio at lysine P00367_K480 is listed for O=C(Oc1c(F)c(F)c(F)c(F)c1F)C1CCN(C(=O)OCc2ccccc2)CC1 [fragment 24] ?
Marked response: 2.0

====

Target: ERAP1 Endoplasmic reticulum aminopeptidase 1 (Homo sapiens)
Construct: endogenous in cells; host or cells: MDA-MB-231 lysate
Sequence (Q9NZ08 whole entry): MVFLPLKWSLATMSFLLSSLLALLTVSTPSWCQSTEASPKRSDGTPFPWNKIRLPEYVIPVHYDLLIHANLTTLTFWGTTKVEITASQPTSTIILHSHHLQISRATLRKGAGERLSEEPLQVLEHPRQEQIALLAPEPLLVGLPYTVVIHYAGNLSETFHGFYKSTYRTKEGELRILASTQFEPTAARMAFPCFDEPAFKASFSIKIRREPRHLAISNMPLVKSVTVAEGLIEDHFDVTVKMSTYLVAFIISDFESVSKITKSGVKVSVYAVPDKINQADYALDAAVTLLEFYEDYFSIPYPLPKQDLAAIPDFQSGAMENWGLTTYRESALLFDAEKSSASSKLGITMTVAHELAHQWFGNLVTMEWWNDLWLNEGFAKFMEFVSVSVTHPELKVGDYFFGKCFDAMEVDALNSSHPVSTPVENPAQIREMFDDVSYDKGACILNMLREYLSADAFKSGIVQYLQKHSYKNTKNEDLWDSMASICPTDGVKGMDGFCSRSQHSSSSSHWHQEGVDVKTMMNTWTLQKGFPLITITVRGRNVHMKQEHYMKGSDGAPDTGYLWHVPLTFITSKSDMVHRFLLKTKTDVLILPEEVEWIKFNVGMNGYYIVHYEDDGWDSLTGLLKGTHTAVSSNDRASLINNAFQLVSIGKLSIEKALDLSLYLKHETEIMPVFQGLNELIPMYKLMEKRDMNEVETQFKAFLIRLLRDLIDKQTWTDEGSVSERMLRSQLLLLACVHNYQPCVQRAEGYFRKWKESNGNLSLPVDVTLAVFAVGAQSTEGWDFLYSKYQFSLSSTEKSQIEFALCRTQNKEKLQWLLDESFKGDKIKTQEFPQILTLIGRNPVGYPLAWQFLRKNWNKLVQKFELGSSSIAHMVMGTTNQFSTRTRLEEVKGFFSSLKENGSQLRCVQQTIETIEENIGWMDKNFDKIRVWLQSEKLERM
Assay: competitive isoTOP-ABPP
Assay type: binding
Settings: Q9NZ08_K685; 50 uM, 231 sol, in vitro
For each entry below, report its R value (DMSO/fragment) for probe 1 labeling value.
Please reply with the value in numeric form only.

Exam item: Query: R value (DMSO/fragment) for probe 1 labeling; subject: O=C(Oc1c(F)c(F)c(F)c(F)c1F)C(c1ccccc1)c1ccccc1 [fragment 20, Pentafluorophenyl 2,2-diphenylacetate]
Marked response: 1.5

Exam item: # R value (DMSO/fragment) for probe 1 labeling lookup, item `O=C(Oc1c(F)c(F)c(F)c(F)c1F)c1cc(C(F)(F)F)cc(C(F)(F)F)c1`
Marked response: 1.4

Exam item: Endpoint output: R value (DMSO/fragment) for probe 1 labeling of `O=C(CCc1cn(-c2ccccc2)nc1-c1ccccc1)Oc1c(F)c(F)c(F)c(F)c1F` . Value?
Marked response: 1.1

Exam item: Quick one: R value (DMSO/fragment) for probe 1 labeling of `COc1cc(CCC(=O)Oc2c(F)c(F)c(F)c(F)c2F)cc(OC)c1OC` ?
Marked response: 1.7

====

I'd be grateful if you could share measured isoTOP-ABPP reactivity ratio at lysine P19367_K510 for these entries.
Target: HK1 Hexokinase-1 (Homo sapiens)
Construct: isoTOP-ABPP experiments performed in cell lysates (in vitro); endogenous in cells; host or cells: soluble proteome of human cancer cell lines (MDA-MB-231; Ramos and Jurkat also prepared)
Sequence (P19367 whole entry): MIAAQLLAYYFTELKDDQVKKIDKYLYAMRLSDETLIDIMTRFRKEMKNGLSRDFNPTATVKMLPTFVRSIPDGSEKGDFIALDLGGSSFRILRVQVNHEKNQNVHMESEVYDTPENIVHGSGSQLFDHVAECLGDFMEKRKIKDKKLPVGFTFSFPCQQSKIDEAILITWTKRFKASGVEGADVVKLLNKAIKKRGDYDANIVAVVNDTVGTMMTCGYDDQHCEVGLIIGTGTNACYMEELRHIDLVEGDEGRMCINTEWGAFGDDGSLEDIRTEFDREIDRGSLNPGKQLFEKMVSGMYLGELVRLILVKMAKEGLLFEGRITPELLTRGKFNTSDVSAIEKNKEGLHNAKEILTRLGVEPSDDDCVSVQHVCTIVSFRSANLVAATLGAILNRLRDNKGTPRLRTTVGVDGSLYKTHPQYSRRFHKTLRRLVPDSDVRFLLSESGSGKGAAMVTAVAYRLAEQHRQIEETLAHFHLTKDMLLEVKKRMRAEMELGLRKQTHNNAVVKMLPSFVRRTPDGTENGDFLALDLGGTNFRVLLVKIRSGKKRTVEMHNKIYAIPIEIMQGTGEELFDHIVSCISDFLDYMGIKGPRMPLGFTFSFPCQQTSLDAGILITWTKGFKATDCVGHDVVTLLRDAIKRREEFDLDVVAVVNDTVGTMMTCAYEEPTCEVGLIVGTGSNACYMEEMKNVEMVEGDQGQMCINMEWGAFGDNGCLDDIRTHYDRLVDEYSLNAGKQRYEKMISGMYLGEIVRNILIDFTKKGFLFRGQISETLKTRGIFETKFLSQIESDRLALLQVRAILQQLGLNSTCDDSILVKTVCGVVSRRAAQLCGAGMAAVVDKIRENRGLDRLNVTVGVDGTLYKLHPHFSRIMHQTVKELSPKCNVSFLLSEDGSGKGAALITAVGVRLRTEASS
Assay: competitive isoTOP-ABPP
Type: binding
Design: key: R = MS1 peak area ratio, DMSO (heavy) / compound-treated (light)
Details: 50 uM, 231 sol, in vitro
Response field accepts a number only; no unit should be typed.

Exam item: Request the reported isoTOP-ABPP reactivity ratio at lysine P19367_K510 associated with `CCn1cc(C(=O)Oc2c(F)c(F)c(F)c(F)c2F)c(=O)c2ccc(C)nc21`
Marked response: 0.9

Exam item: Given the entry `O=C(CCc1cn(-c2ccccc2)nc1-c1ccccc1)Oc1ccc([N+](=O)[O-])cc1[N+](=O)[O-]` , report its measured isoTOP-ABPP reactivity ratio at lysine P19367_K510.
Marked response: 10.8

Exam item: Look up isoTOP-ABPP reactivity ratio at lysine P19367_K510: O=C(Oc1ccc([N+](=O)[O-])cc1[N+](=O)[O-])C(c1ccccc1)c1ccccc1 [fragment 30, 2,4-Dinitrophenyl 2,2-diphenylacetate]
Marked response: 1.0

Exam item: Quick one: isoTOP-ABPP reactivity ratio at lysine P19367_K510 of `O=C(Oc1c(F)c(F)c(F)c(F)c1F)c1ccc2ccccc2n1` ?
Marked response: 1.2
